Form field: CC50 (one value per entry).
# Method: Cytotoxicity against human foreskin fibroblast cell infected with Toxoplasma gondii
# Format: cell-based
# Run Parameters: read-out: TD50 (the source's name)
Observation Type: CC50 (µM)

[
  {
    "Compound": "Cc1ccc2c(c1)/C(=C1/Nc3ccccc3/C1=N\\O)C(=O)N2",
    "Observation Type": "CC50",
    "Limit Qualifier": ">",
    "Numeric Value": 500
  },
  {
    "Compound": "O=C1C(c2c(O)[nH]c3ccc(Br)cc23)=Nc2ccccc21",
    "Observation Type": "CC50",
    "Limit Qualifier": ">",
    "Numeric Value": 500
  },
  {
    "Compound": "O=C1c2ccc(Br)cc2-n2c1nc1ccccc1c2=O",
    "Observation Type": "CC50",
    "Limit Qualifier": ">",
    "Numeric Value": 500
  },
  {
    "Compound": "O=C1Nc2ccc(F)cc2/C1=C1/Nc2ccccc2/C1=N\\O",
    "Observation Type": "CC50",
    "Limit Qualifier": "=",
    "Numeric Value": 61
  },
  {
    "Compound": "O=C1C(c2c(O)[nH]c3ccc(Cl)cc23)=Nc2ccccc21",
    "Observation Type": "CC50",
    "Limit Qualifier": ">",
    "Numeric Value": 500
  },
  {
    "Compound": "O=C1C(c2c(O)[nH]c3ccc(I)cc23)=Nc2ccccc21",
    "Observation Type": "CC50",
    "Limit Qualifier": "=",
    "Numeric Value": 240
  },
  {
    "Compound": "O=C1c2cc(F)ccc2-n2c1nc1ccccc1c2=O",
    "Observation Type": "CC50",
    "Limit Qualifier": "=",
    "Numeric Value": 63
  },
  {
    "Compound": "O=C1Nc2ccc(Cl)cc2/C1=C1/Nc2ccccc2/C1=N\\O",
    "Observation Type": "CC50",
    "Limit Qualifier": "=",
    "Numeric Value": 51
  },
  {
    "Compound": "O=C1c2cc(Br)c(Cl)cc2-n2c1nc1ccccc1c2=O",
    "Observation Type": "CC50",
    "Limit Qualifier": "=",
    "Numeric Value": 100
  },
  {
    "Compound": "O=C1c2ccccc2-n2c1nc1ccccc1c2=O",
    "Observation Type": "CC50",
    "Limit Qualifier": "=",
    "Numeric Value": 62
  },
  {
    "Compound": "O=C1c2cc(Br)ccc2-n2c1nc1ccccc1c2=O",
    "Observation Type": "CC50",
    "Limit Qualifier": ">",
    "Numeric Value": 500
  },
  {
    "Compound": "O=C1Nc2ccc(Br)cc2/C1=C1/Nc2ccccc2/C1=N\\O",
    "Observation Type": "CC50",
    "Limit Qualifier": "=",
    "Numeric Value": 17
  },
  {
    "Compound": "O=C1c2ccc(Cl)cc2-n2c1nc1ccccc1c2=O",
    "Observation Type": "CC50",
    "Limit Qualifier": ">",
    "Numeric Value": 500
  },
  {
    "Compound": "Cc1ccc2[nH]c(O)c(C3=Nc4ccccc4C3=O)c2c1",
    "Observation Type": "CC50",
    "Limit Qualifier": ">",
    "Numeric Value": 500
  },
  {
    "Compound": "O=C1Nc2ccc(S(=O)(=O)O)cc2/C1=C1/Nc2ccccc2/C1=N\\O",
    "Observation Type": "CC50",
    "Limit Qualifier": ">",
    "Numeric Value": 500
  },
  {
    "Compound": "O=C1c2cc(I)ccc2-n2c1nc1ccccc1c2=O",
    "Observation Type": "CC50",
    "Limit Qualifier": ">",
    "Numeric Value": 500
  },
  {
    "Compound": "O=C1Nc2cc(Br)ccc2/C1=C1/Nc2ccccc2/C1=N\\O",
    "Observation Type": "CC50",
    "Limit Qualifier": "=",
    "Numeric Value": 16
  },
  {
    "Compound": "CC(=O)O/N=C1/C(c2c(O)[nH]c3ccccc23)=Nc2ccccc21",
    "Observation Type": "CC50",
    "Limit Qualifier": "=",
    "Numeric Value": 22
  },
  {
    "Compound": "O=C1Nc2ccccc2/C1=C1/Nc2ccccc2/C1=N\\OCC(O)CO (stereo not drawn)",
    "Observation Type": "CC50",
    "Limit Qualifier": ">",
    "Numeric Value": 500
  },
  {
    "Compound": "O=C1C(c2c(O)[nH]c3ccc([N+](=O)[O-])cc23)=Nc2ccccc21",
    "Observation Type": "CC50",
    "Limit Qualifier": ">",
    "Numeric Value": 500
  },
  {
    "Compound": "O=Nc1c(-c2c(O)[nH]c3ccc([N+](=O)[O-])cc23)[nH]c2ccccc12",
    "Observation Type": "CC50",
    "Limit Qualifier": "=",
    "Numeric Value": 27
  },
  {
    "Compound": "O=Nc1c(-c2c(O)[nH]c3ccc(I)cc23)[nH]c2ccccc12",
    "Observation Type": "CC50",
    "Limit Qualifier": "=",
    "Numeric Value": 47
  },
  {
    "Compound": "O=C1Nc2cc(Cl)c(Br)cc2/C1=C1/Nc2ccccc2C1=O",
    "Observation Type": "CC50",
    "Limit Qualifier": ">",
    "Numeric Value": 500
  }
]
